Origin of the recorded values: paper PMC11268423

Test system: SARS-CoV-2 WA-1 (P1)
Assay: microbe, parasite or virus in culture
Format: cell-based
Details: Severe acute respiratory syndrome coronavirus 2, A549-ACE2
Value Type: EC50

CCC(CC)COC(=O)[C@H](C)N[P@](=O)(OC[C@H]1O[C@@](C#N)(c2ccc3c(N)ncnn23)[C@H](O)[C@@H]1O)Oc1ccccc1
0.075 µM
CC(C)(C)[C@H](NC(=O)C(F)(F)F)C(=O)N1C[C@H]2[C@@H]([C@H]1C(=O)N[C@H](C#N)C[C@@H]1CCNC1=O)C2(C)C
0.054 µM
